- Experiment: soluble on expression in E. coli; label from the status in PepcDB or PDB records
Test readout: soluble on expression in E. coli

Some sequences with known soluble on expression in E. coli results, for comparison:
# Biopolymer sequence, Assay value
records = [
    ("MAHHHHHHAYLPPNMAERLQMSSSSTEPTTTSSMLPAPHSSANMRHIEGLVVVPGVVKVSRSDVASQYTMPHTNNAPLLFSEPEHRAVDNSSGSNDAQLEPKDPHLGLMPHCLSCTLLTSAGAQEPDDVYGRSMPSSSAVGAVTTELECAVVPTLHASFTPGVSTSIMPAPTEAHSACGSRPLQQPRWGGNYDSGSQCVSFRGADRSNNVSGCGLRLVGDDVEWLQGSFEDSASSPREEVQLSWGHLQRQPCAGKSSAARAVPPALHDVREGTGGEKVLAAHHRFERAVQPQTQRQGVFPSADQENCQAAAMLWAAQQMAVFD", "soluble"),
    ("MGSDKIHHHHHHMNYPTTRLNWPRAWRVIPSRFPAVGLFERVASPDDFDALYALEAMTNDRLRDEVGDISLVPPEERLFGPGSTCIMAAFTHLNPQGSRFSDGSYGVFYCARKRDTAIAETRYHSARFMQATREPPMRLQMRLYSVQARGEAADLRVASKSDPRIVAPDDYSYPQAIGRSLRAAGALGIVYPSVRHSGGGCLAALRTGIVKNCLHAAYLEYNWNGEGIDAVFEVNRVL", "not soluble"),
    ("MQDRIFAFTPKGSLFQLPKGATPIDFAFAVHTNLGAQAVGAKINGRHVPLRTPLGNGDVVEIIKSRTSEPQLEHHHHHH", "not soluble"),
    ("MLSQKLFEEISAKISETIAASPAKDIEKNVRAMMASTFSKMDLVTREEFDVQQAVLARTREKLAALESRLARLESQAFPDEAAAKVEEQSELGHS", "not soluble"),
    ("MGSDKIHHHHHHMATLTTNTPIATGSTFSAASLQFLNKLAQNNSRDWFKAHQAEYEETVRTPALQFIEQMQPSILALSPRLTAVPKKVGGSLMRPQRDSRFSKDKTPYKTNIGIQFRHFQGKDVHAPGLYLHIAEDGCFIAAGIWHPESKALNAIRTCIDENPNGYKKALQTLQNHGFTMDGDSLTRPPKGFDKNHPMLTELKRKDFIAVKNIAFEELCRPDAACFCAEQFAHCTQLMAYLCFALDLDF", "not soluble"),
    ("GCPRILIRCKQDSDCLAGCVCGPNGFCGSPA", "soluble"),
]

**Query** // query soluble on expression in E. coli value for entry `MGKNKQNKFFQMKASANGKTADVFIYGEITKYAWEEYGEVSSITFKNELDELGDDIKTINLYINSPGGSVFETMAIIAMLQRHHAKIISYIDGIGASCASVLPMISDKIIMYANSMMMIHNAWTYASGNADQLRKAADDIERINQSMVQHYLTRAGDKLDEDTLKQLLDAETWLSAEEAMGYGLCDEIIPANNATACLDEKWMKEYKNIPQQLVNAQANISSNEMLERQKIAEEAKANADYIKTILGRIHS`
**Result** not soluble

**Query** Quick one: soluble on expression in E. coli of `MSSSLFAPTIETIDYPFPPKPVPLSDAQKADYKARIKQLLIEKDAVLVAHYYTDPEIQALAEETGGCVSDSLEMARFGRDHPAKTLIVAGVKFMGETAKILSPEKTILMPTLEATCSLDLGCPIDKFSAFCDAHPDHTVVVYANTSAAVKARADWVVTSSIALEIVEHLDSEGKKIIWGPDRHLGSYIAKQTGAEMLMWQGDCIVHDEFKANALRDLKSVYPDAAILVHPESPASVVAMADAVGSTSQLIKAAQTMPNERFIVATDRGIFYKMQQAAPGKTLIEAPTGGNGATCKSCAHCPWMAMNGLKAIEASLSNSDKTTHEIFVDEDLRVKALIPLTRMLDFAKTLNMKVKGNA` ?
**Result** soluble
